Biological target: recombinant hemagglutinin HA1 subunit (rHA, H5) (Influenza A virus A/Vietnam/1203/2004 …, UniProt Q5EP31 17-346)
Test: BLI; rHA immobilized; apparent KD; BLI at 30 C in sodium-potassium phosphate buffer pH 7.4 ([…]
Details: protein: commercial; label: none (rHA); 5'-biotin (vHA BLI); parallel G4, 77% monomer

>  <binder>
TTGGGGTTATTAAGGGAGGGCGGGGGTT (structured_DNA) [G7-TTATTAA_A_C]

>  <outputUnit>
nM

>  <Kd>
0.4

$$$$
